Source of measurements: paper PMC6901909

# Tested on: MDR P. aeruginosa PA253
# MEASUREMENT_NOTES: microbe, parasite or virus in culture
# Format: cell-based, Pseudomonas aeruginosa
# CONDITION_LABEL: MDR PA253, 18 h
# Procedure: We selected six different P. aeruginosa isolates that were described as MDR and had been isolated from clinical and municipal waste water ([Schwartz et al., 2006]). The minimal inhibitory concentration (MIC) was determined in a microdilution assay using Mueller-Hinton (MH) broth following a previously published protocol ([Wiegand et al., 2008]). Briefly, a twofold serial dilution of the antibiotics and peptides were prepared and added to a bacteria solution, resulting in 2–5 10^5 CFU/ml. […]
Peptide text beside a SMILES is read from it.
# MIC against MDR isolates of PA, PA253 values compiled below
Numbers only; they are read as µM.

// below: answered molecules
MOLECULE	QUANTITY_UNIT	MIC against MDR isolates of PA, PA253
CC[C@H](C)[C@H](NC(=O)[C@H](CCCNC(=N)N)NC(=O)[C@H](CCCNC(=N)N)NC(=O)[C@H](CC(C)C)NC(=O)[C@@H](N)CCCNC(=N)N)C(=O)N[C@H](C(=O)N[C@H](C(=O)N[C@H](C(=O)N[C@@H](CCCNC(=N)N)C(=O)N[C@H](C(=O)N[C@@H](C)C(=O)N[C@@H](CCCNC(=N)N)C(N)=O)C(C)C)[C@@H](C)CC)C(C)C)C(C)C [Peptide R3] (H-RLRRIVVIRVAR-NH2)	µM	16
CC[C@H](C)[C@H](NC(=O)[C@@H](NC(=O)[C@H](CCCNC(=N)N)NC(=O)[C@H](Cc1c[nH]c2ccccc12)NC(=O)[C@H](CCCNC(=N)N)NC(=O)[C@@H](N)CCCNC(=N)N)C(C)C)C(=O)N[C@H](C(=O)N[C@@H](CCCCN)C(=O)N[C@@H](Cc1c[nH]c2ccccc12)C(N)=O)C(C)C [LOP4] (H-RRWRVIVKW-NH2)	µM	8
CC[C@H](C)[C@H](N)C(=O)N[C@@H](CC(C)C)C(=O)N[C@@H](CCCCN)C(=O)N[C@@H](Cc1c[nH]c2ccccc12)C(=O)N[C@@H](CCCCN)C(=O)N[C@H](C(=O)N[C@@H](CCCCN)C(=O)N[C@@H](Cc1c[nH]c2ccccc12)C(=O)N[C@@H](Cc1c[nH]c2ccccc12)C(=O)N[C@@H](CCCCN)C(=O)N[C@@H](Cc1c[nH]c2ccccc12)C(=O)N[C@@H](Cc1ccccc1)C(=O)N[C@@H](CCCNC(=N)N)C(N)=O)[C@@H](C)O [Indopt 11] (H-ILKWKTKWWKWFR-NH2)	µM	4
CC[C@H](C)[C@H](NC(=O)[C@@H](N)Cc1ccccc1)C(=O)N[C@@H](CCCCN)C(=O)N[C@@H](Cc1c[nH]c2ccccc12)C(=O)N[C@@H](CCCNC(=N)N)C(=O)N[C@@H](CO)C(=O)N[C@@H](CCCNC(=N)N)C(=O)N[C@@H](Cc1c[nH]c2ccccc12)C(=O)N[C@@H](Cc1c[nH]c2ccccc12)C(=O)N[C@@H](CCCCN)C(=O)N[C@@H](CCCCN)C(=O)N[C@@H](CCCNC(=N)N)C(=O)N[C@H](C(N)=O)[C@@H](C)O [Indopt 3] (H-FIKWRSRWWKKRT-NH2)	µM	16

Then there is this molecule:
Return reported MIC against MDR isolates of PA, PA253; argument: CC[C@H](C)[C@H](NC(=O)[C@@H](N)Cc1ccccc1)C(=O)N[C@@H](CCCCN)C(=O)N[C@@H](Cc1c[nH]c2ccccc12)C(=O)N[C@@H](CCCNC(=N)N)C(=O)N[C@@H](Cc1ccccc1)C(=O)N[C@@H](CCCNC(=N)N)C(=O)N[C@@H](CCCNC(=N)N)C(=O)N[C@@H](Cc1c[nH]c2ccccc12)C(=O)N[C@@H](CCCCN)C(=O)N[C@@H](CCCCN)C(=O)N[C@@H](CCCNC(=N)N)C(=O)N[C@@H](CCCCN)C(N)=O [Indopt 4] (H-FIKWRFRRWKKRK-NH2)
8
